molecular target: T1, LA peptide (Octet assay of PS557 variants); experiment: Octet (BLI), peptide on sensor, response after 200 s association
T1 construct: Peptide coated on the Octet sensor
Give Octet response for every item shown.
Mention the unit after the number when you answer.

PS960 (designed binder, Variant of PS557) MPTAASATESAIEDTPAPARPEVDGRTKPKRQPRYHVVLWDDDDHTYQYVVVMLRSLFGIPPERGYRLAKEMDTQGRVIVLTTTREHAELKRDQIHAFGYDRLLARSKGSMKASIEAEE; 10.5 nm
PS961 (designed binder, Variant of PS557; also called N41D, V72M, Q55R, E63S, L68M, Y100R) MPTAASATESAIEDTPAPARPEVDGRTKPKRQPRYHVVLWDDDDHTYQYVVVMLRSLFGHPPSRGYRMAKEMDTQGRVIVLTTTREHAELKRDQIHAFGRDRLLARSKGSMKASIEAEE; 11.8 nm

Lab note: next binder to report on.
Fill in the blank: the reported Octet response of PS557 (other, Natural ClpS parent protein; also called WT; wild-type protein) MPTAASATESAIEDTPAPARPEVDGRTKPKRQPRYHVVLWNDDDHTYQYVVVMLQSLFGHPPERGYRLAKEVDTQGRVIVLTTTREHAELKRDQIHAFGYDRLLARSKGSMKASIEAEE is ____.
7.16 nm
